- Test system: Escherichia coli TOP10
- Protocol summary: shrunken log2 fold change of peptide-encoding DNA abundance (4.5 h post-induction vs induction); higher = less antimicrobial activity (less host growth inhibition)
- Measurement conditions: time post-induction: 4.5 h; library: site-saturation at positions 5, 18, 19, 20
The following sequences are listed with their measured shrunken log2 fold change values.
Answer using only a numeral; do not append any unit.

Sample answers from the record:
{"Macromolecule sequence": "RRIRDRPPRLPRPRPRPLTQPRP", "Measurement target": "Escherichia coli TOP10", "Reported measurement": 0.0757}
{"Macromolecule sequence": "RRIRERPPRLPRPRPRPPTFPRP", "Measurement target": "Escherichia coli TOP10", "Reported measurement": -0.767}
{"Macromolecule sequence": "RRIRSRPPRLPRPRPRPHGEPRP", "Measurement target": "Escherichia coli TOP10", "Reported measurement": -0.0153}

Note: attention shifts to another entry.
In: For the sequence "RRIRPRPPRLPRPRPRPIYQPRP" , what shrunken log2 fold change is on record?
Out: -0.35

---

- System: Escherichia coli TOP10
- Protocol summary: shrunken log2 fold change of peptide-encoding DNA abundance (4.5 h post-induction vs induction); higher = less antimicrobial activity (less host growth inhibition)
- Measurement conditions: time post-induction: 4.5 h; library: site-saturation at positions 5, 18, 19, 20
Think of -0.002 as a floor: if shrunken log2 fold change stands on it or above, it is criterion met; beneath it, criterion not met.

{"Macromolecule sequence": "RRIRDRPPRLPRPRPRPGLAPRP", "Classification": "criterion met"}

In: Quick check, shrunken log2 fold change >= -0.002? "RRIRCRPPRLPRPRPRPWESPRP"
Out: criterion met

---

- Test system: Escherichia coli TOP10;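 further: peptides expressed intracellularly from a pBAD plasmid library in pooled LB shake-flask culture, induced with 0.3% L-arabinose, DNA abundance read by NGS, three biological replicates, DESeq2 with apeglm shrinkage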
- Protocol summary: shrunken log2 fold change of peptide-encoding DNA abundance (4.5 h post-induction vs induction); higher = less antimicrobial activity (less host growth inhibition)
- Measurement conditions: time post-induction: 4.5 h; library: site-saturation at positions 5, 18, 19, 20
Categories are defined by ranges of shrunken log2 fold change, namely low value: < -0.06; medium value: ≥ -0.06 and < 0.1; high value: ≥ 0.1

# example entries with known answers
{"Macromolecule sequence": "RRIRYRPPRLPRPRPRPMTGPRP", "Measurement target": "Escherichia coli TOP10", "Classification": "medium value"}
{"Macromolecule sequence": "RRIRARPPRLPRPRPRPLCIPRP", "Measurement target": "Escherichia coli TOP10", "Classification": "low value"}
{"Macromolecule sequence": "RRIRHRPPRLPRPRPRPLCHPRP", "Measurement target": "Escherichia coli TOP10", "Classification": "low value"}
{"Macromolecule sequence": "RRIRTRPPRLPRPRPRPTQCPRP", "Measurement target": "Escherichia coli TOP10", "Classification": "high value"}
{"Macromolecule sequence": "RRIRERPPRLPRPRPRPDIGPRP", "Measurement target": "Escherichia coli TOP10", "Classification": "medium value"}
{"Macromolecule sequence": "RRIRYRPPRLPRPRPRPMFMPRP", "Measurement target": "Escherichia coli TOP10", "Classification": "low value"}
{"Macromolecule sequence": "RRIRHRPPRLPRPRPRPSVDPRP", "Measurement target": "Escherichia coli TOP10", "Classification": "medium value"}
{"Macromolecule sequence": "RRIRFRPPRLPRPRPRPSCQPRP", "Measurement target": "Escherichia coli TOP10", "Classification": "low value"}
{"Macromolecule sequence": "RRIRARPPRLPRPRPRPMLCPRP", "Measurement target": "Escherichia coli TOP10", "Classification": "high value"}
{"Macromolecule sequence": "RRIRVRPPRLPRPRPRPYHQPRP", "Measurement target": "Escherichia coli TOP10", "Classification": "medium value"}

In: GET /class?item= "RRIRARPPRLPRPRPRPQGYPRP"
Out: high value

In: What would you report for "RRIRHRPPRLPRPRPRPHQRPRP" ?
Out: medium value

In: What would you report for "RRIRLRPPRLPRPRPRPSPQPRP" ?
Out: high value

In: What would you report for "RRIRTRPPRLPRPRPRPRDPPRP" ?
Out: medium value
